- tested system: ZFR
- assay procedure: pooled miR-30 sensor sort-seq; sequence = guide strand; note: reference of the scale not given here
- run conditions: shRNA
Quick rule: sensor-assay potency score (higher = more potent) of at least -0.5 means T, below that means F.

ordered residues: TTGTGTAGGAGACATAAGCAGG
label value: F
//
ordered residues: TATAACAGCAAGCTGTTTGGGT
label value: T
//
ordered residues: TTACATATGAGTATGAATCCTG
label value: T
//
ordered residues: TATAACCATAGTCAGTTGCTGT
label value: F
//
ordered residues: TTATATTGAAGTCTGTGTCTTC
label value: T
//
ordered residues: TTTTTCATTACATCACTGCTAG
label value: T
//
ordered residues: TTGTGTGTAACTTAACCACTTT
label value: F

---

- tested system: RAI2
- assay procedure: pooled miR-30 sensor sort-seq; sequence = guide strand
- run conditions: shRNA
measurement name: sensor-assay potency score (higher = more potent)

ordered residues: TTCTTTAACTTTATGCTCCGGT
tested system: RAI2
measured number: 0.268
//
ordered residues: TTTAACTTTATGCTCCGGTTTT
tested system: RAI2
measured number: -1.48
//
ordered residues: TCAGCCTTGACTTCGCCGCTGG
tested system: RAI2
measured number: -0.358
//
ordered residues: TCGACAGAGACAATGACCTTGG
tested system: RAI2
measured number: -0.196
//
ordered residues: TTGAGCTCTGGTGCGGAGCTTC
tested system: RAI2
measured number: -0.528
//
ordered residues: TTTTCAGCCTTGACTTCGCCGC
tested system: RAI2
measured number: -0.377
//
ordered residues: TTGTTGTGGATGGTACTGGAGG
tested system: RAI2
measured number: -0.912
//
ordered residues: TTCAGAACTCTGAGGCACCGGG
tested system: RAI2
measured number: -0.474
//
ordered residues: TTGAAGGAGAAGTTTTTGGTGG
tested system: RAI2
measured number: -0.107
//
ordered residues: TTTATAAAACCAATGCACCTTT
tested system: RAI2
measured number: -0.626

---

- tested system: FZD1
- assay procedure: pooled miR-30 sensor sort-seq; sequence = guide strand
- run conditions: shRNA
Hi, to clarify the labels: fulfilled covers sensor-assay potency score (higher = more potent) from -0.4 upward, not fulfilled covers anything below -0.4.

ordered residues: TTGCTGGTCCAGAACTCTGGAA
label value: not fulfilled
--
ordered residues: TGTCATTACACACCACTCGGTC
label value: not fulfilled
--
ordered residues: TTCACTAGAGGGTAGAACTGGT
label value: fulfilled
--
ordered residues: TTTGCTGTTGGTGAGCCTCGTG
label value: fulfilled
--
ordered residues: ATGAAGACCGTGAAGTCCGGGC
label value: fulfilled
--
ordered residues: TTGCTGTTGGTGAGCCTCGTGT
label value: not fulfilled
--
ordered residues: TACTTAATCATGAAGACCGTGA
label value: fulfilled
--
ordered residues: TACAGCACGCTGAAGACGCCAA
label value: fulfilled

---

Consider the following sequences and their measured sensor-assay potency score (higher = more potent) readings.
- tested system: FTL
- assay procedure: pooled miR-30 sensor sort-seq; sequence = guide strand
- run conditions: shRNA
measurement name: sensor-assay potency score (higher = more potent)

ordered residues: TTCACTTCCTCATCTAGGAAGT
measured number: -0.832
--
ordered residues: TTTCGAAGAGATACTCGCCCAG
measured number: -0.301
--
ordered residues: TTCGAAGAGATACTCGCCCAGC
measured number: -0.73
--
ordered residues: TCGCGGTCGAAATAGAAGCCCA
measured number: -1.25
--
ordered residues: TTTGCATCTTCAGGAGACGCTC
measured number: -0.792
--
ordered residues: ATGAAGATCCAAAAGGGCCTGG
measured number: -0.154
--
ordered residues: TTGATAAGCTTCACTTCCTCAT
measured number: -0.312
--
ordered residues: TTTTACCCCACTCATCTTCAGC
measured number: -1.2
